Test: Toxicity in Wistar rat administered as single dose
Format: organism-based
Details: in vivo
EXPERIMENTAL ENDPOINT: LD50 (mg/kg)

- CN(CC(=O)NC(CCC(=O)O)C(=O)O)C(=O)c1ccc(N(C)Cc2cnc3nc(N)nc(N)c3n2)cc1.O (centres undefined): 1000
- Nc1nc(N)c2nc(CNc3ccc(C(=O)NCC(=O)NC(CCC(=O)O)C(=O)O)cc3)cnc2n1.O (centres undefined): 400
- Nc1nc(N)c2nc(CNc3ccc(C(=O)NCC(=O)NC(CC(=O)O)C(=O)O)cc3)cnc2n1.O (centres undefined): 200
- CN(Cc1cnc2nc(N)nc(N)c2n1)c1ccc(C(=O)N[C@@H](Cc2ccccc2)C(=O)NC(CC(=O)O)C(=O)O)cc1.O (some centres undefined): 1000
- CC(NC(=O)c1ccc(N(C)Cc2cnc3nc(N)nc(N)c3n2)cc1)C(=O)NC(CCC(=O)O)C(=O)O (centres undefined): 500
- CN(Cc1cnc2nc(N)nc(N)c2n1)c1ccc(C(=O)N[C@@H](Cc2ccccc2)C(=O)NC(CCC(=O)O)C(=O)O)cc1.O (some centres undefined): 500
- CC(C)C[C@H](NC(=O)c1ccc(N(C)Cc2cnc3nc(N)nc(N)c3n2)cc1)C(=O)NC(CCC(=O)O)C(=O)O (some centres undefined): 500
- CN(Cc1cnc2nc(N)nc(N)c2n1)c1ccc(C(=O)NCC(=O)NC(CCC(=O)O)C(=O)O)cc1.O (centres undefined): 830
- CN(Cc1cnc2nc(N)nc(N)c2n1)c1ccc(C(=O)NCC(=O)NC(CC(=O)O)C(=O)O)cc1.O (centres undefined): 500

Where these numbers come from: ChEMBL document CHEMBL3244424
